# Tested on: Escherichia coli
# assay details: Bacteriostatic activity against Escherichia coli MTCC 1652 after 24 hr by tube dilution method
# Assay type: functional
Please respond with reported -logMIC for every item in the list.
Note: the reply should be a number with no unit written.

Exercise: Provide one value: measured -logMIC of CSc1ccc(/C=N/NC(=O)c2ccc(C)cc2)cc1
Solution: 1.96

Exercise: Provide one value: measured -logMIC of CCCCCCCCCCCCCC(=O)N/N=C/c1ccc(SC)cc1
Solution: 1.48

Exercise: Provide one value: measured -logMIC of CCCCCCCCCCCCCC(=O)N/N=C/c1cccc(O)c1
Solution: 0.94

Exercise: Provide one value: measured -logMIC of O=C(/C=C/c1ccccc1)N/N=C/c1cccc(O)c1
Solution: 1.32

Exercise: Provide one value: measured -logMIC of O=C(O)c1cn(C2CC2)c2cc(N3CCNCC3)c(F)cc2c1=O
Solution: 2.61

Exercise: Provide one value: measured -logMIC of CCCCCCCCCCCCCCCC(=O)N/N=C/c1ccc(SC)cc1
Solution: 1.81

* * *

# Tested on: Bacillus subtilis
# assay details: Bacteriostatic activity against Bacillus subtilis MTCC 2063 after 24 hr by tube dilution method
# Type: functional
Please respond with reported -logMIC for every item in the list.
Note: the reply should be a number with no unit written.

Exercise: Provide one value: measured -logMIC of C/C=C/C=C/C(=O)N/N=C/c1cccc(O)c1
Solution: 1.27

Exercise: Provide one value: measured -logMIC of COc1ccc(C(=O)N/N=C/c2cccc(O)c2)cc1OC
Solution: 1.38

Exercise: Provide one value: measured -logMIC of O=C(O)c1cn(C2CC2)c2cc(N3CCNCC3)c(F)cc2c1=O
Solution: 2.61

Exercise: Provide one value: measured -logMIC of O=C(N/N=C/c1cccc(O)c1)c1cc([N+](=O)[O-])cc([N+](=O)[O-])c1
Solution: 1.42

Exercise: Provide one value: measured -logMIC of CCCCCCCCCCCCCC(=O)N/N=C/c1ccc(SC)cc1
Solution: 2.08

Exercise: Provide one value: measured -logMIC of CSc1ccc(/C=N/NC(=O)c2ccc(C)cc2)cc1
Solution: 1.96

Exercise: Provide one value: measured -logMIC of CCCCCCCCCCCCCCCC(=O)N/N=C/c1cccc(O)c1
Solution: 1.78

* * *

# Tested on: Bacillus subtilis
# assay details: Bacteriostatic activity against Bacillus subtilis MTCC 2063 after 24 hr by tube dilution method
# Assay type: functional
Please respond with MET when measured -logMIC is strictly beneath 1, and with NOT MET in all other cases.

Exercise: Does this compound meet the criterion -logMIC < 1? CCCCCCCCCCCCCC(=O)N/N=C/c1cccc(O)c1
Solution: NOT MET

Exercise: Does this compound meet the criterion -logMIC < 1? COc1ccc(C(=O)N/N=C/c2ccc(SC)cc2)cc1OC
Solution: NOT MET

Exercise: Does this compound meet the criterion -logMIC < 1? C/C=C/C=C/C(=O)N/N=C/c1ccc(SC)cc1
Solution: MET

Exercise: Does this compound meet the criterion -logMIC < 1? CCCCCCCCCCCCCCCC(=O)N/N=C/c1ccc(SC)cc1
Solution: NOT MET

Exercise: Does this compound meet the criterion -logMIC < 1? CCCCCCCCCCCC(=O)N/N=C/c1cccc(O)c1
Solution: MET

Exercise: Does this compound meet the criterion -logMIC < 1? CSc1ccc(/C=N/NC(=O)/C=C/c2ccccc2)cc1
Solution: NOT MET

Exercise: Does this compound meet the criterion -logMIC < 1? O=C(/C=C/c1ccccc1)N/N=C/c1cccc(O)c1
Solution: NOT MET

Exercise: Does this compound meet the criterion -logMIC < 1? CCCCCCCCCCCCCCCCCC(=O)N/N=C/c1ccc(SC)cc1
Solution: MET

Exercise: Does this compound meet the criterion -logMIC < 1? CSc1ccc(/C=N/NC(=O)c2cccc(C)c2)cc1
Solution: NOT MET

Exercise: Does this compound meet the criterion -logMIC < 1? CSc1ccc(/C=N/NC(=O)c2cc([N+](=O)[O-])cc([N+](=O)[O-])c2)cc1
Solution: NOT MET

Exercise: Does this compound meet the criterion -logMIC < 1? CCCCCCCCCCCCCCCCCC(=O)N/N=C/c1cccc(O)c1
Solution: NOT MET

Exercise: Does this compound meet the criterion -logMIC < 1? CCCCCCCCCCCC(=O)N/N=C/c1ccc(SC)cc1
Solution: NOT MET

* * *

# System: Staphylococcus aureus
# assay details: Bactericidal activity against Staphylococcus aureus MTCC 2901
# Format: functional
measured metric: MBC

Exercise: Provide one value: measured MBC of CSc1ccc(/C=N/NC(=O)c2ccc(C)cc2)cc1
Solution: > 176 µM

Exercise: Provide one value: measured MBC of CCCCCCCCCCCCCCCC(=O)N/N=C/c1cccc(O)c1
Solution: > 133 µM

Exercise: Provide one value: measured MBC of O=C(N/N=C/c1cccc(O)c1)c1cc([N+](=O)[O-])cc([N+](=O)[O-])c1
Solution: > 151 µM

Exercise: Provide one value: measured MBC of COc1ccc(C(=O)N/N=C/c2cccc(O)c2)cc1OC
Solution: 83 µM

Exercise: Provide one value: measured MBC of COc1ccc(C(=O)N/N=C/c2ccc(SC)cc2)cc1OC
Solution: 37 µM

Exercise: Provide one value: measured MBC of CCCCCCCCCCCCCC(=O)N/N=C/c1cccc(O)c1
Solution: > 144 µM

Exercise: Provide one value: measured MBC of CCCCCCCCCCCCCC(=O)N/N=C/c1ccc(SC)cc1
Solution: > 132 µM

Exercise: Provide one value: measured MBC of CCCCCCCCCCCC(=O)N/N=C/c1ccc(SC)cc1
Solution: > 142 µM

Exercise: Provide one value: measured MBC of O=C(/C=C/c1ccccc1)N/N=C/c1cccc(O)c1
Solution: 46 µM

Exercise: Provide one value: measured MBC of C/C=C/C=C/C(=O)N/N=C/c1cccc(O)c1
Solution: > 217 µM

Exercise: Provide one value: measured MBC of CCCCCCCCCCCC(=O)N/N=C/c1cccc(O)c1
Solution: > 157 µM

Exercise: Provide one value: measured MBC of CSc1ccc(/C=N/NC(=O)/C=C/c2ccccc2)cc1
Solution: > 168 µM

Exercise: Provide one value: measured MBC of CSc1ccc(/C=N/NC(=O)c2cccc(C)c2)cc1
Solution: > 176 µM

Exercise: Provide one value: measured MBC of O=C(O)c1cn(C2CC2)c2cc(N3CCNCC3)c(F)cc2c1=O
Solution: 19 µM

Exercise: Provide one value: measured MBC of CCCCCCCCCCCCCCCCCC(=O)N/N=C/c1cccc(O)c1
Solution: > 124 µM

Exercise: Provide one value: measured MBC of CCCCCCCCCCCCCCCC(=O)N/N=C/c1ccc(SC)cc1
Solution: > 122 µM

Exercise: Provide one value: measured MBC of C/C=C/C=C/C(=O)N/N=C/c1ccc(SC)cc1
Solution: 192 µM

Exercise: Provide one value: measured MBC of CCCCCCCCCCCCCCCCCC(=O)N/N=C/c1ccc(SC)cc1
Solution: > 115 µM

Exercise: Provide one value: measured MBC of CSc1ccc(/C=N/NC(=O)c2cc([N+](=O)[O-])cc([N+](=O)[O-])c2)cc1
Solution: 69 µM

* * *

# Tested on: Escherichia coli
# assay details: Bacteriostatic activity against Escherichia coli MTCC 1652 after 24 hr by tube dilution method
# Type: functional
measured metric: -logMIC
Note: the reply should be a number with no unit written.

Exercise: Provide one value: measured -logMIC of CCCCCCCCCCCCCCCC(=O)N/N=C/c1cccc(O)c1
Solution: 1.13

Exercise: Provide one value: measured -logMIC of CCCCCCCCCCCC(=O)N/N=C/c1ccc(SC)cc1
Solution: 1.3

Exercise: Provide one value: measured -logMIC of CCCCCCCCCCCC(=O)N/N=C/c1cccc(O)c1
Solution: 0.98

Exercise: Provide one value: measured -logMIC of CSc1ccc(/C=N/NC(=O)c2cc([N+](=O)[O-])cc([N+](=O)[O-])c2)cc1
Solution: 2.06

Exercise: Provide one value: measured -logMIC of C/C=C/C=C/C(=O)N/N=C/c1cccc(O)c1
Solution: 1.27

Exercise: Provide one value: measured -logMIC of CSc1ccc(/C=N/NC(=O)/C=C/c2ccccc2)cc1
Solution: 1.68

Exercise: Provide one value: measured -logMIC of CCCCCCCCCCCCCCCCCC(=O)N/N=C/c1cccc(O)c1
Solution: 1.3

Exercise: Provide one value: measured -logMIC of COc1ccc(C(=O)N/N=C/c2ccc(SC)cc2)cc1OC
Solution: 1.7

Exercise: Provide one value: measured -logMIC of O=C(N/N=C/c1cccc(O)c1)c1cc([N+](=O)[O-])cc([N+](=O)[O-])c1
Solution: 1.42

Exercise: Provide one value: measured -logMIC of CCCCCCCCCCCCCCCCCC(=O)N/N=C/c1ccc(SC)cc1
Solution: 1.65

Exercise: Provide one value: measured -logMIC of CSc1ccc(/C=N/NC(=O)c2cccc(C)c2)cc1
Solution: 1.66

Exercise: Provide one value: measured -logMIC of COc1ccc(C(=O)N/N=C/c2cccc(O)c2)cc1OC
Solution: 1.38

Exercise: Provide one value: measured -logMIC of C/C=C/C=C/C(=O)N/N=C/c1ccc(SC)cc1
Solution: 1.32
